Test system: Escherichia coli TOP10;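 note: peptides expressed intracellularly from a pBAD plasmid library in pooled LB shake-flask culture, induced with 0.3% L-arabinose, DNA abundance read by NGS, three biological replicates, DESeq2 with apeglm shrinkage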
Measurement Description: shrunken log2 fold change of peptide-encoding DNA abundance (4.5 h post-induction vs induction); higher = less antimicrobial activity (less host growth inhibition)
Condition Summary: time post-induction: 4.5 h; library: site-saturation at positions 5, 18, 19, 20
I would appreciate it if you labelled entries Yes when shrunken log2 fold change is -0.3 or higher, otherwise No.

> print(dat)
             chain.sequence          assayed.system  label.class
 1  RRIRWRPPRLPRPRPRPIYNPRP  Escherichia coli TOP10           No
 2  RRIRIRPPRLPRPRPRPQYHPRP  Escherichia coli TOP10           No
 3  RRIRARPPRLPRPRPRPLQFPRP  Escherichia coli TOP10          Yes
 4  RRIRMRPPRLPRPRPRPELGPRP  Escherichia coli TOP10          Yes
 5  RRIRMRPPRLPRPRPRPPCVPRP  Escherichia coli TOP10          Yes
 6  RRIRNRPPRLPRPRPRPWGRPRP  Escherichia coli TOP10          Yes
 7  RRIRTRPPRLPRPRPRPQYKPRP  Escherichia coli TOP10           No
 8  RRIRCRPPRLPRPRPRPDTRPRP  Escherichia coli TOP10          Yes
 9  RRIRDRPPRLPRPRPRPCTNPRP  Escherichia coli TOP10          Yes
10  RRIRDRPPRLPRPRPRPSRQPRP  Escherichia coli TOP10          Yes
11  RRIRPRPPRLPRPRPRPFPLPRP  Escherichia coli TOP10           No
12  RRIRGRPPRLPRPRPRPGEPPRP  Escherichia coli TOP10          Yes
13  RRIRERPPRLPRPRPRPTMIPRP  Escherichia coli TOP10           No
14  RRIRMRPPRLPRPRPRPWTKPRP  Escherichia coli TOP10          Yes
15  RRIRQRPPRLPRPRPRPKTHPRP  Escherichia coli TOP10           No

Source listed as the supplement of paper PMC9112550.
